- ASSAY_EXPLANATION: acute toxicity in the mouse
- RECORDED_CONDITIONS: in vivo, po, intragastric route, seven days of observation
PROPERTY_NAME: LD50 at 168 h

Task item: Respond only with LD50 at 168 h recorded for CC(C)c1c(C(=O)c2cccnc2)c2ccccc2n1C [Compound A]
Reply: 900 mg/kg

* * *

- ASSAY_EXPLANATION: acute toxicity in the rat
- RECORDED_CONDITIONS: rat, in vivo, ip
PROPERTY_NAME: LD50 (mg/kg)
Answer with a number only, understood to be in mg/kg.

Task item: Please list LD50 recorded for the compound CC(C)c1c(C(=O)c2cccnc2)c2ccccc2n1C [Compound A]
Reply: 425
